# key: entry, value: Cmax
assay: Cmax in Beagle dog at 3 mg/kg, po administered via gavage by LC-MS/MS analysis; format: ADME, organism-based, Canis lupus familiaris; set-up: route oral, dose 3 mg/kg; details: in vivo
Numbers only here, please. The scale is µM.

Please review the following examples before continuing.
>>> print(df.to_string())
                           molecular_string  quantity_name  reading_unit  value_reported
0  CNC(=O)c1cn(C[C@H](F)CCc2ccc(NC(=O)Cc3cc(-c4cccc(OC(F)(F)F)c4)ccn3)nn2)nn1.Cl           Cmax            µM            0.58
1  CNC(=O)c1cn(C[C@H](F)CCc2ccc(NC(=O)Cc3cc(OC4CC(F)(F)C4)cc(C)n3)nn2)nn1.Cl.Cl           Cmax            µM              31
2  CNC(=O)c1cn(C[C@H](F)CCc2ccc(NC(=O)Cc3cc(C(F)(F)F)cc(C)n3)nn2)nn1           Cmax            µM             4.5

Pending compound:
Briefly, Cmax measured for "CNC(=O)c1cn(C[C@H](F)CCc2ccc(NC(=O)Cc3cc(OC4CC(F)(F)C4)ccn3)nn2)nn1.Cl" : 2.7

Origin of values: ChEMBL document CHEMBL4673258
